test system: Escherichia coli TOP10; assay: shrunken log2 fold change of peptide-encoding DNA abundance (4.5 h post-induction vs induction); higher = less antimicrobial activity (less host growth inhibition); conditions: time post-induction: 4.5 h; library: site-saturation at positions 5, 18, 19, 20;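 note: peptides expressed intracellularly from a pBAD plasmid library in pooled LB shake-flask culture, induced with 0.3% L-arabinose, DNA abundance read by NGS, three biological replicates, DESeq2 with apeglm shrinkage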
QUANTITY_MEASURED: shrunken log2 fold change

[[record]]
residue_string = "RRIRQRPPRLPRPRPRPRDQPRP"
observed_value = -0.0332

[[record]]
residue_string = "RRIRKRPPRLPRPRPRPPANPRP"
observed_value = 0.48

[[record]]
residue_string = "RRIRVRPPRLPRPRPRPHWDPRP"
observed_value = -0.473

[[record]]
residue_string = "RRIRRRPPRLPRPRPRPDWCPRP"
observed_value = 0.201

[[record]]
residue_string = "RRIRSRPPRLPRPRPRPFHAPRP"
observed_value = 0.042

[[record]]
residue_string = "RRIRFRPPRLPRPRPRPCKYPRP"
observed_value = -0.373

[[record]]
residue_string = "RRIRARPPRLPRPRPRPTPSPRP"
observed_value = 0.791

[[record]]
residue_string = "RRIRWRPPRLPRPRPRPWRYPRP"
observed_value = -0.262

[[record]]
residue_string = "RRIRARPPRLPRPRPRPGICPRP"
observed_value = 0.182

[[record]]
residue_string = "RRIRSRPPRLPRPRPRPIYSPRP"
observed_value = 0.101

[[record]]
residue_string = "RRIRYRPPRLPRPRPRPGTIPRP"
observed_value = 0.137

[[record]]
residue_string = "RRIRMRPPRLPRPRPRPQYFPRP"
observed_value = 0.00454

[[record]]
residue_string = "RRIRDRPPRLPRPRPRPEVCPRP"
observed_value = 0.0705

[[record]]
residue_string = "RRIRSRPPRLPRPRPRPRLDPRP"
observed_value = 0.25

[[record]]
residue_string = "RRIRHRPPRLPRPRPRPCIFPRP"
observed_value = -0.597

[[record]]
residue_string = "RRIRCRPPRLPRPRPRPLREPRP"
observed_value = 0.562

[[record]]
residue_string = "RRIRARPPRLPRPRPRPERRPRP"
observed_value = 0.77

[[record]]
residue_string = "RRIRARPPRLPRPRPRPPTYPRP"
observed_value = 0.0408

[[record]]
residue_string = "RRIRARPPRLPRPRPRPMESPRP"
observed_value = 0.0501

[[record]]
residue_string = "RRIRWRPPRLPRPRPRPKVVPRP"
observed_value = 0.352

[[record]]
residue_string = "RRIRCRPPRLPRPRPRPSAIPRP"
observed_value = -0.014

[[record]]
residue_string = "RRIRFRPPRLPRPRPRPRSNPRP"
observed_value = -0.336

[[record]]
residue_string = "RRIRGRPPRLPRPRPRPDTAPRP"
observed_value = 1

[[record]]
residue_string = "RRIRIRPPRLPRPRPRPYRWPRP"
observed_value = 0.0522

[[record]]
residue_string = "RRIRPRPPRLPRPRPRPEFFPRP"
observed_value = -0.00122

[[record]]
residue_string = "RRIRARPPRLPRPRPRPGSGPRP"
observed_value = 0.576

[[record]]
residue_string = "RRIRYRPPRLPRPRPRPKQYPRP"
observed_value = -0.409

[[record]]
residue_string = "RRIRKRPPRLPRPRPRPPVVPRP"
observed_value = 0.453

[[record]]
residue_string = "RRIRGRPPRLPRPRPRPHCFPRP"
observed_value = 0.233

[[record]]
residue_string = "RRIRARPPRLPRPRPRPLDTPRP"
observed_value = 0.39

[[record]]
residue_string = "RRIRMRPPRLPRPRPRPEILPRP"
observed_value = 0.121

[[record]]
residue_string = "RRIRGRPPRLPRPRPRPTNIPRP"
observed_value = 0.298

[[record]]
residue_string = "RRIRGRPPRLPRPRPRPFQYPRP"
observed_value = 0.105

[[record]]
residue_string = "RRIRKRPPRLPRPRPRPVAAPRP"
observed_value = 0.721

[[record]]
residue_string = "RRIRTRPPRLPRPRPRPERNPRP"
observed_value = -0.201

[[record]]
residue_string = "RRIRRRPPRLPRPRPRPSQIPRP"
observed_value = 0.092

[[record]]
residue_string = "RRIRQRPPRLPRPRPRPKATPRP"
observed_value = 0.18

[[record]]
residue_string = "RRIRFRPPRLPRPRPRPECVPRP"
observed_value = 0.0137

[[record]]
residue_string = "RRIRYRPPRLPRPRPRPNRAPRP"
observed_value = -0.0548

[[record]]
residue_string = "RRIRLRPPRLPRPRPRPAERPRP"
observed_value = 0.139

[[record]]
residue_string = "RRIRVRPPRLPRPRPRPYGNPRP"
observed_value = -0.0775

[[record]]
residue_string = "RRIRMRPPRLPRPRPRPNMNPRP"
observed_value = -0.056

[[record]]
residue_string = "RRIRHRPPRLPRPRPRPHMQPRP"
observed_value = -0.616

[[record]]
residue_string = "RRIRARPPRLPRPRPRPDQFPRP"
observed_value = 0.389

[[record]]
residue_string = "RRIRSRPPRLPRPRPRPEFTPRP"
observed_value = 0.171

[[record]]
residue_string = "RRIRNRPPRLPRPRPRPIITPRP"
observed_value = -0.14

[[record]]
residue_string = "RRIRVRPPRLPRPRPRPNQCPRP"
observed_value = -0.264

[[record]]
residue_string = "RRIRERPPRLPRPRPRPLCWPRP"
observed_value = -0.0772

[[record]]
residue_string = "RRIRARPPRLPRPRPRPDWLPRP"
observed_value = 0.432

[[record]]
residue_string = "RRIRMRPPRLPRPRPRPPEQPRP"
observed_value = 0.956

[[record]]
residue_string = "RRIRDRPPRLPRPRPRPENCPRP"
observed_value = -0.0102

[[record]]
residue_string = "RRIRCRPPRLPRPRPRPGCNPRP"
observed_value = -0.425

[[record]]
residue_string = "RRIRMRPPRLPRPRPRPICVPRP"
observed_value = 0.196

[[record]]
residue_string = "RRIRLRPPRLPRPRPRPARRPRP"
observed_value = 0.348

[[record]]
residue_string = "RRIRNRPPRLPRPRPRPDMIPRP"
observed_value = -0.667

[[record]]
residue_string = "RRIRQRPPRLPRPRPRPKCVPRP"
observed_value = -0.018

[[record]]
residue_string = "RRIRMRPPRLPRPRPRPKSDPRP"
observed_value = 0.466

[[record]]
residue_string = "RRIRDRPPRLPRPRPRPQHHPRP"
observed_value = -0.299

[[record]]
residue_string = "RRIRDRPPRLPRPRPRPREHPRP"
observed_value = -0.118

[[record]]
residue_string = "RRIRKRPPRLPRPRPRPEECPRP"
observed_value = 0.00489

[[record]]
residue_string = "RRIRARPPRLPRPRPRPYGWPRP"
observed_value = 0.0617

[[record]]
residue_string = "RRIRGRPPRLPRPRPRPNSHPRP"
observed_value = 0.285

[[record]]
residue_string = "RRIRLRPPRLPRPRPRPMNTPRP"
observed_value = -0.524

